The following compounds are listed with their measured viability, T/C values.
- Tested on: 282377-053-R-J1-PDC complex spheroid viability
- Assay Remarks: Anticancer human tumor 282377-053-R-J1-PDC patient-derived colon adenocarcinoma cell line growth inhibition [RAS]
- Reported Conditions: second compound 0.003 µM; first compound 0.3 µM; active compounds read low
Measured Metric: viability, T/C (%)

>>> endpoint_value("CC1(C)CCC(Nc2ncc(C(F)(F)F)c(-c3c[nH]c4c(P(C)(C)=O)c(C#N)ccc34)n2)CN1 (centres undefined) + CCn1c(-c2cc(N3CCN(C)CC3)cnc2C(C)OC)c2c3cc(ccc31)-c1csc(n1)CC(NC(=O)C1CC1C)C(=O)N1CCCC(N1)C(=O)OCC(C)(C)C2")
94.9
>>> endpoint_value("CCc1c2c(nc3ccc(O)cc13)-c1cc3c(c(=O)n1C2)COC(=O)[C@]3(O)CC + CCn1c(-c2cc(N3CCN(C)CC3)cnc2C(C)OC)c2c3cc(ccc31)-c1csc(n1)CC(NC(=O)C1CC1C)C(=O)N1CCCC(N1)C(=O)OCC(C)(C)C2")
66.2
>>> endpoint_value("CCc1c2c(nc3ccc(O)cc13)-c1cc3c(c(=O)n1C2)COC(=O)[C@]3(O)CC + CCn1c(-c2cccnc2C(C)OC)c2c3cc(ccc31)N1CCOC(CC(NC(=O)C(C(C)C)N(C)C(=O)C3(F)CCN(C(=O)C#CC(C)(C)N(C)C)CC3)C(=O)N3CCCC(N3)C(=O)OCC(C)(C)C2)C1")
98.8
>>> endpoint_value("CC1(C)CCC(Nc2ncc(C(F)(F)F)c(-c3c[nH]c4c(P(C)(C)=O)c(C#N)ccc34)n2)CN1 (centres undefined) + CCn1c(-c2cccnc2C(C)OC)c2c3cc(ccc31)N1CCOC(CC(NC(=O)C(C(C)C)N(C)C(=O)C3(F)CCN(C(=O)C#CC(C)(C)N(C)C)CC3)C(=O)N3CCCC(N3)C(=O)OCC(C)(C)C2)C1")
89.3

====

- System: 282377-053-R-J1-PDC complex spheroid viability
- Assay Remarks: Anticancer human tumor 282377-053-R-J1-PDC cell line growth inhibition [RAS];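 also: spheroids exposed to agents for seven days before readout; luminescence viability as percent of DMSO vehicle control wells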
- Reported Conditions: second compound 0.03 µM; first compound 0.316 µM; active compounds read low
Measured Metric: viability, T/C (%)

>>> endpoint_value("Nc1ccn(C2OC(CO)C(O)C2(F)F)c(=O)n1 (centres undefined) + CCn1c(-c2cccnc2C(C)OC)c2c3cc(ccc31)N1CCOC(CC(NC(=O)C(C(C)C)N(C)C(=O)C3(F)CCN(C(=O)C#CC(C)(C)N(C)C)CC3)C(=O)N3CCCC(N3)C(=O)OCC(C)(C)C2)C1")
103
>>> endpoint_value("C=CC(=O)Nc1cc(Nc2nccc(-c3cn(C)c4ccccc34)n2)c(OC)cc1N(C)CCN(C)C + CCn1c(-c2cc(N3CCN(C)CC3)cnc2C(C)OC)c2c3cc(ccc31)-c1csc(n1)CC(NC(=O)C1CC1C)C(=O)N1CCCC(N1)C(=O)OCC(C)(C)C2")
85.6
>>> endpoint_value("C=CC(=O)Nc1cc(Nc2nccc(-c3cn(C)c4ccccc34)n2)c(OC)cc1N(C)CCN(C)C + CCn1c(-c2cccnc2C(C)OC)c2c3cc(ccc31)N1CCOC(CC(NC(=O)C(C(C)C)N(C)C(=O)C3(F)CCN(C(=O)C#CC(C)(C)N(C)C)CC3)C(=O)N3CCCC(N3)C(=O)OCC(C)(C)C2)C1")
86.9
>>> endpoint_value("O=C(c1ccc(F)c(F)c1Nc1ccc(I)cc1F)N1CC(O)([C@@H]2CCCCN2)C1 + CCn1c(-c2cccnc2C(C)OC)c2c3cc(ccc31)N1CCOC(CC(NC(=O)C(C(C)C)N(C)C(=O)C3(F)CCN(C(=O)C#CC(C)(C)N(C)C)CC3)C(=O)N3CCCC(N3)C(=O)OCC(C)(C)C2)C1")
41.6

====

- Test system: 282377-053-R-J1-PDC complex spheroid viability
- Assay Remarks: Anticancer human tumor 282377-053-R-J1-PDC cell line growth inhibition [RAS];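 also: spheroids exposed to agents for seven days before readout; luminescence viability as percent of DMSO vehicle control wells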
- Reported Conditions: second compound 0.3 µM; first compound 0.0316 µM; active compounds read low
The following molecules are listed with their measured viability, T/C values.
Measured Metric: viability, T/C (%)

>>> endpoint_value("CC(C)NCC(C(=O)N1CCN(c2ncnc3c2C(C)CC3O)CC1)c1ccc(Cl)cc1 (stereo not given) + CCn1c(-c2cccnc2C(C)OC)c2c3cc(ccc31)N1CCOC(CC(NC(=O)C(C(C)C)N(C)C(=O)C3(F)CCN(C(=O)C#CC(C)(C)N(C)C)CC3)C(=O)N3CCCC(N3)C(=O)OCC(C)(C)C2)C1")
105
>>> endpoint_value("CCN1CCN(Cc2ccc(Nc3ncc(F)c(-c4cc(F)c5nc(C)n(C(C)C)c5c4)n3)nc2)CC1 + CCn1c(-c2cc(N3CCN(C)CC3)cnc2C(C)OC)c2c3cc(ccc31)-c1csc(n1)CC(NC(=O)C1CC1C)C(=O)N1CCCC(N1)C(=O)OCC(C)(C)C2")
123
>>> endpoint_value("Nc1ccn(C2OC(CO)C(O)C2(F)F)c(=O)n1 (stereo not given) + CCn1c(-c2cc(N3CCN(C)CC3)cnc2C(C)OC)c2c3cc(ccc31)-c1csc(n1)CC(NC(=O)C1CC1C)C(=O)N1CCCC(N1)C(=O)OCC(C)(C)C2")
129
>>> endpoint_value("Cc1nc(N2CCC3(CC2)COC(C)C3N)c(CO)nc1Sc1ccnc(N)c1Cl (stereo not given) + CCn1c(-c2cccnc2C(C)OC)c2c3cc(ccc31)N1CCOC(CC(NC(=O)C(C(C)C)N(C)C(=O)C3(F)CCN(C(=O)C#CC(C)(C)N(C)C)CC3)C(=O)N3CCCC(N3)C(=O)OCC(C)(C)C2)C1")
87.6
>>> endpoint_value("Cc1nc(N2CCC3(CC2)COC(C)C3N)c(CO)nc1Sc1ccnc(N)c1Cl (stereo not given) + CCn1c(-c2cc(N3CCN(C)CC3)cnc2C(C)OC)c2c3cc(ccc31)-c1csc(n1)CC(NC(=O)C1CC1C)C(=O)N1CCCC(N1)C(=O)OCC(C)(C)C2")
80.5
>>> endpoint_value("CCC(CC)c1cc(NC2CCC(N)C2)n2nccc2n1 (stereo not given) + CCn1c(-c2cccnc2C(C)OC)c2c3cc(ccc31)N1CCOC(CC(NC(=O)C(C(C)C)N(C)C(=O)C3(F)CCN(C(=O)C#CC(C)(C)N(C)C)CC3)C(=O)N3CCCC(N3)C(=O)OCC(C)(C)C2)C1")
112
>>> endpoint_value("CC(Nc1ccc2c(c1)OCCn1cc(N3C(=O)OCC3C(F)F)nc1-2)C(N)=O (stereo not given) + CCn1c(-c2cccnc2C(C)OC)c2c3cc(ccc31)N1CCOC(CC(NC(=O)C(C(C)C)N(C)C(=O)C3(F)CCN(C(=O)C#CC(C)(C)N(C)C)CC3)C(=O)N3CCCC(N3)C(=O)OCC(C)(C)C2)C1")
84.7
>>> endpoint_value("O=C(c1ccc(F)c(F)c1Nc1ccc(I)cc1F)N1CC(O)([C@@H]2CCCCN2)C1 + CCn1c(-c2cc(N3CCN(C)CC3)cnc2C(C)OC)c2c3cc(ccc31)-c1csc(n1)CC(NC(=O)C1CC1C)C(=O)N1CCCC(N1)C(=O)OCC(C)(C)C2")
31.1
>>> endpoint_value("CCN1CCN(Cc2ccc(Nc3ncc(F)c(-c4cc(F)c5nc(C)n(C(C)C)c5c4)n3)nc2)CC1 + CCn1c(-c2cccnc2C(C)OC)c2c3cc(ccc31)N1CCOC(CC(NC(=O)C(C(C)C)N(C)C(=O)C3(F)CCN(C(=O)C#CC(C)(C)N(C)C)CC3)C(=O)N3CCCC(N3)C(=O)OCC(C)(C)C2)C1")
87.2
>>> endpoint_value("C[C@@H](NC(=O)c1ncnc(N)c1Cl)c1ncc(C(=O)Nc2cc(C(F)(F)F)c(Cl)cn2)s1 + CCn1c(-c2cc(N3CCN(C)CC3)cnc2C(C)OC)c2c3cc(ccc31)-c1csc(n1)CC(NC(=O)C1CC1C)C(=O)N1CCCC(N1)C(=O)OCC(C)(C)C2")
94.3
>>> endpoint_value("CC(=O)OC12COC1CC(O)C1(C)C(=O)C(O)C3=C(C)C(OC(=O)C(O)C(NC(=O)OC(C)(C)C)c4ccccc4)CC(O)(C(OC(=O)c4ccccc4)C21)C3(C)C (stereo not given) + CCn1c(-c2cccnc2C(C)OC)c2c3cc(ccc31)N1CCOC(CC(NC(=O)C(C(C)C)N(C)C(=O)C3(F)CCN(C(=O)C#CC(C)(C)N(C)C)CC3)C(=O)N3CCCC(N3)C(=O)OCC(C)(C)C2)C1")
53.8
>>> endpoint_value("C=CC(=O)N1CCN(c2nc(OCC3CCCN3C)nc3c(F)c(-c4nc(N)cc(C)c4C(F)(F)F)c(Cl)cc23)C(C)C1 (stereo not given) + CCn1c(-c2cc(N3CCN(C)CC3)cnc2C(C)OC)c2c3cc(ccc31)-c1csc(n1)CC(NC(=O)C1CC1C)C(=O)N1CCCC(N1)C(=O)OCC(C)(C)C2")
134
>>> endpoint_value("Nc1ccn(C2OC(CO)C(O)C2(F)F)c(=O)n1 (stereo not given) + CCn1c(-c2cccnc2C(C)OC)c2c3cc(ccc31)N1CCOC(CC(NC(=O)C(C(C)C)N(C)C(=O)C3(F)CCN(C(=O)C#CC(C)(C)N(C)C)CC3)C(=O)N3CCCC(N3)C(=O)OCC(C)(C)C2)C1")
92.8
>>> endpoint_value("CC(C)NCC(C(=O)N1CCN(c2ncnc3c2C(C)CC3O)CC1)c1ccc(Cl)cc1 (stereo not given) + CCn1c(-c2cc(N3CCN(C)CC3)cnc2C(C)OC)c2c3cc(ccc31)-c1csc(n1)CC(NC(=O)C1CC1C)C(=O)N1CCCC(N1)C(=O)OCC(C)(C)C2")
100
>>> endpoint_value("CC1(O)CCCC1n1c(=O)c(C(F)F)cc2cnc(NC3CCN(S(C)(=O)=O)CC3)nc21 (stereo not given) + CCn1c(-c2cccnc2C(C)OC)c2c3cc(ccc31)N1CCOC(CC(NC(=O)C(C(C)C)N(C)C(=O)C3(F)CCN(C(=O)C#CC(C)(C)N(C)C)CC3)C(=O)N3CCCC(N3)C(=O)OCC(C)(C)C2)C1")
111
